// data source = ChEMBL document CHEMBL1201862

Reported GI50 values for a set of compounds
# System: M19-MEL
# assay-protocol: NCI tumour cell line growth inhibition, 48 h
Active and inactive are the calls of the source. No stated cut-off is given here; in the data, active = GI50 up to about 1.1 µM and inactive = higher.

Recorded results for 5 compounds are shown here.
INSERT INTO results (compound, endpoint, measured) VALUES
  ('CN(C)c1nc(N(C)c2ccccc2)[s+]s1', 'GI50', '18.9 µM (inactive)'),
  ('CC(=O)OCCOCNC(=S)N/N=C/c1ccc2ccccc2n1', 'GI50', '28.6 µM (inactive)'),
  ('N#CC(OC1OC(COC2OC(CO)C(O)C(O)C2O)C(O)C(O)C1O)c1ccccc1 (stereo unspecified)', 'GI50', '> 225 µM (inactive)'),
  ('Cl[Si]1(Cl)Oc2ccccc2O[Si](Cl)(Cl)Oc2ccccc2O1', 'GI50', '12 µM (inactive)'),
  ('Cn1c(=O)nc2n(-c3ccc(Br)cc3)c3ccccc3nc-2c1=O', 'GI50', '1.49 µM (inactive)');

// next item, GI50 requested
Which GI50 reading was recorded for the compound COC(=O)/C([Se]c1c(C)cc(C)cc1C)=C(/[Se]c1c(C)cc(C)cc1C)C(=O)OC ? > 100 µM (inactive)
